# System: SW-620 colon
# METHOD: NCI-60 one-dose screen, 48 h (100 = growth as untreated, 0 = no growth, -100 = all killed)
# DETAILS: 10 µM unless noted
The panel holds about 83,000 compounds, 20% with a hit somewhere; the sample as a whole holds those more often.
Would you kindly list growth for each of these compounds?
A number alone suffices; assume %.

Prompt line: Looking for the measured growth of `COc1cc(C(=O)/C=C/c2c(Cl)nc3sccn23)cc(OC)c1OC` , can you help?
Response line: 65.8

Prompt line: Value lookup for growth; key = `COc1cc(C(=O)c2cc(C)c3[nH]c4ccc(O)cc4c3c2C)cc(OC)c1OC`
Response line: 31.2

Prompt line: Entry under review: COc1cc(OCc2cccc(-c3ccc(C(O)c4nccs4)cc3)c2C)cc(OC)c1CNCCNC(C)=O (stereo not drawn) . Reported growth?
Response line: 97.8

Prompt line: Reported growth, compound `CCCCn1c(=O)c(-c2cc(-c3ccc(Cl)cc3)nc(-c3ccc(Cl)cc3)c2)cc2ccc(Cl)cc21` : ____
Response line: 100

Prompt line: Entry `CCCCn1c(-c2ccc(-c3nc(-c4ccc(Cl)cc4)no3)cc2)nc(-c2ccccc2)c1-c1ccccc1` : reported growth = ?
Response line: 88.8

Prompt line: # growth lookup, item NC[C@@H]1O[C@H](O[C@@H]2[C@@H](CO)OC(O[C@@H]3[C@@H](O)[C@H](N)C[C@H](N)[C@H]3OC3O[C@H](CN)[C@@H](O)[C@H](O)[C@H]3N)[C@@H]2O)[C@H](N)[C@@H](O)[C@@H]1O (stereo partly drawn)
Response line: 109

Prompt line: Requested field: growth. Item: CCOC(=O)C1=C(N)Oc2c(sc3c(CC)cccc23)C1c1ccc(F)cc1 (stereo not drawn)
Response line: 22.3

Prompt line: Data request, read-out growth, for `Cc1ccc(/C=C(\C#N)n2nc3cccc(F)c3n2)cc1`
Response line: 94.3

Prompt line: Which growth reading was recorded for the compound `Fc1cc2c(cc1Cl)N(c1ncnc3ccc(-c4cnc5cnccn45)cc13)CC2` ?
Response line: 101

Prompt line: So what does the record say about growth for `C=C1CC[C@@]2(C#N)[C@H]3[C@H](CC[C@@H]2C)[C@@H](C)C[C@@H](CC(C)(C)C#N)[C@H]13` ?
Response line: 49.9

Prompt line: Please give the measured growth for this compound: `Nc1ccccc1-c1cc2c(c3c1[nH]c1ccccc13)CCCCC2`
Response line: 96.2

Prompt line: What value of measured growth is listed for COc1cc(C(=O)N2N=C(c3ccc(S(C)(=O)=O)cc3)CC2c2ccco2)cc(OC)c1OC (stereo not drawn) ?
Response line: 42.3

Prompt line: Which growth is listed for `Nc1cc2c(cc1Br)-c1cc(Cl)ccc1C2=O` ?
Response line: 109

Prompt line: Recorded growth of `CC1=C(C)C(=O)C(Nc2cccc(C(=O)OC(C)(C)C)c2)=C(Br)C1=O` , please.
Response line: 91.3

Prompt line: Could you share which growth value was measured for `Cn1cc(-c2cc3ncnc(Nc4ccc(CC(=O)Nc5cc(C(C)(C)C)on5)cc4)c3s2)cn1` ?
Response line: 38.8

Prompt line: I'd like to know its growth. The compound in question is `COc1ccc(-c2[nH]ncc2-c2cc3c(c(OC)c2)OCC(=O)N3)cc1`
Response line: 12.6

Prompt line: For the compound `CCc1ccc(Oc2c(-c3ccc(OCc4ccc(Cl)cc4)cc3O)n[nH]c2C(F)(F)F)cc1` , what growth is on record?
Response line: 17.4

Prompt line: Which growth is reported for this compound? CCCC1CCC(O)(C(C)(O)C(=O)NC2C(=O)N3NCCCC3C(=O)N(O)C(C)C(=O)N3NCCCC3C(=O)N3NCC(O)CC3C(=O)NC(C)C(=O)OC2C(C)C)OC1CC (stereo not drawn)
Response line: -97.3

Prompt line: Which growth reading was recorded for the compound `Clc1ccc(C(/C=C/c2sc(Cl)nc2Cl)=N/Nc2cc(Cl)cc(Cl)c2)cc1` ?
Response line: 106

Prompt line: Give its growth value. Item: `CNCCCNc1nc2ccccc2c2c(=O)c3cc(OC)ccc3sc12`
Response line: -50.3

Prompt line: Can you share its growth? I mean this compound: `COc1ccc2c(c1)/C(=C/c1sc(=S)n(Cc3ccco3)c1O)C=N2`
Response line: 28.1

Prompt line: Which growth value is on record for `COc1cc2oc(-c3ccc(O)cc3)cc(=O)c2c(O)c1-c1c(OC)cc(O)c2c(=O)cc(-c3ccc(O)cc3)oc12` ?
Response line: 25.2

Prompt line: Given the entry `C=CCNc1ccc2c3c(cccc13)C(=O)N(N1C(=O)c3cccc4cccc(c34)C1=O)C2=O` , report its measured growth.
Response line: 108

Prompt line: So what does the record say about growth for O=C(CCOCCNC(=O)COc1ccc2c(c1)OCC(c1ccc(F)cc1)C2=O)NCCCC(O)(P(=O)(O)O)P(=O)(O)O (stereo not drawn) ?
Response line: 101

Prompt line: Reported growth, compound `c1ccc(-c2nc3sc(-c4ccccc4)cn3n2)cc1` : ____
Response line: 94.9

Prompt line: Given `c1ccc(Cc2nn3cc(-c4ccccc4)nc3s2)cc1` , state its recorded growth.
Response line: 109

Prompt line: Item `Nc1nc(-c2cccc3ccccc23)cc2ccccc12` has what recorded growth?
Response line: 19.4

Prompt line: Need growth, item `COc1ccc(-c2nc3sc(-c4ccc(Cl)cc4)cn3n2)cc1`
Response line: 59.6

Prompt line: Suppose we examine the compound `O=C1c2cccc3cccc(c23)C(=O)N1N1C(=O)c2cccc3c(NC4CCCCC4)ccc(c23)C1=O` ; what growth value has been reported?
Response line: 98.7

Prompt line: Given `NCCCNc1nc2ccccc2c2c(=O)c3cccc(F)c3sc12` , state its recorded growth.
Response line: -62.5

Prompt line: Give the measured growth of COc1ccc(C2C(C#N)=C(N)Oc3c2sc2c(C)cccc32)cc1 (stereo not drawn) .
Response line: 26

Prompt line: Fill in the blank: the reported growth of `NC(=O)Nc1ccc2ncnc(Nc3ccc(Cl)cc3)c2c1` is ____.
Response line: 99.1

Prompt line: Look at this compound and give its reported growth. `CC[C@H](C)C(=O)O[C@H]1CCC=C2C=C[C@H](C)[C@H](CC[C@@H]3CC=CC(=O)O3)[C@H]21`
Response line: 85.9

Prompt line: Request the reported growth associated with `NCCNc1nc2ccccc2c2c(=O)c3cc(F)ccc3sc12`
Response line: -29.1

Prompt line: Given the entry `O=C1c2cccc3cccc(c23)C(=O)N1Nc1nc(N2CCOCC2)nc(N2CCN(c3ccccc3)CC2)n1` , report its measured growth.
Response line: 32.6

Prompt line: Query (compound): `COc1nc2ccc(C)cc2cc1-c1nc2c(cnn2-c2ccc(Br)cc2)c(=O)[nH]1` ; field requested: growth
Response line: 28.6

Prompt line: # growth lookup, item `CCOC(=O)CCN(C(=O)Nc1ccccc1)C1CCCCC1`
Response line: 102

Prompt line: Recorded growth of `Cc1c(C(=O)NCCCc2ccccc2)sc2ncc(-c3ccc(Br)cc3)n12` , please.
Response line: 105

Origin of measurements: PubChem BioAssay (NCI)
